Tested on: NCI-H522
Test: NCI tumour cell line growth inhibition, 48 h
Calls of active or inactive are those of the source. Rule as the data show it: active = GI50 up to about 1.1 µM and inactive = higher.
Catalogue of GI50 values

Worked set:
{"columns": ["Molecule", "Reported Measurement"],
 "data": [
  ["O=NN(CCCl)C(=O)NCCCl", "42.9 µM (inactive)"],
  ["COC(=O)c1cccc2cccc(C(=O)Nc3ccc(C)cc3C)c12", "70.1 µM (inactive)"],
  ["CC1=CC(O)(c2ccc(-c3ccccc3Cl)cc2)OC1=O (stereo unspecified)", "> 100 µM (inactive)"],
  ["CS(=N)(=O)CCC(N)P(=O)(O)O (stereo unspecified)", "> 100 µM (inactive)"],
  ["CSc1nc(-c2ccccc2)c2c(n1)-c1ccccc1CC2", "> 100 µM (inactive)"]
]}

For the next question, use this molecule.
Provide one value: measured GI50 of COc1ccc(-c2nc3c(nc2-c2ccc(OC)cc2)C(N)=NS(=O)(=O)N3)cc1
> 100 µM (inactive)

###

Tested on: A498
Assay: NCI tumour cell line growth inhibition, 48 h
The source made the active and inactive calls. Rule as the data show it: active = GI50 up to about 1.1 µM and inactive = higher.
Observation Type: GI50

Please review the following examples before continuing.
{"columns": ["Compound", "System Under Test", "GI50"],
 "data": [
  ["Cc1ccc(S(=O)(=O)NC(=O)NC2=NC(C)(C)N(c3ccc(Cl)c(Cl)c3)C(N)=N2)cc1", "A498", "> 100 µM (inactive)"],
  ["BrCC[P+](c1ccccc1)(c1ccccc1)c1ccccc1", "A498", "11.4 µM (inactive)"],
  ["c1ccc2cc3c(cc2c1)OP1(Oc2cccc4cccnc24)(O3)Oc2cc3ccccc3cc2O1", "A498", "18.2 µM (inactive)"],
  ["C=C1C(=O)OC2CC3(CO3)C3C(O)C(O)CC3(C)CC12 (stereo unspecified)", "A498", "28.4 µM (inactive)"],
  ["COC1=CC(=O)C2=C(C1=O)[C@H]1CC[C@]3(C)[C@@H](OC(C)=O)CC[C@H]3[C@@H]1CC2", "A498", "> 100 µM (inactive)"]
]}

Note: attention shifts to another entry.
Please give the documented GI50 of COc1ccc2c(c1)CCN=C2c1ccccc1CCCCl
49.1 µM (inactive)

###

Test system: K562
Assay: NCI tumour cell line growth inhibition, 48 h
Calls of active or inactive are those of the source. Rule as the data show it: active = GI50 up to about 1.1 µM and inactive = higher.
Form entry, call: pick from active, inactive

Recorded results for 6 compounds are shown here.
{"columns": ["Compound", "Label"],
 "data": [
  ["CCC1c2[nH]c3ccccc3c2C[C@H]2C(=O)NC(COC(C)(C)C)C(=O)N12 (stereo not given in full)", "inactive"],
  ["CCOC(=O)/C=C1\\C[C@H](NC(=O)OCc2ccccc2)C(=O)N1CC(=O)OCC", "inactive"],
  ["CC(C)N/C(N)=N/C#N", "inactive"],
  ["COC1=CC(=O)C2=C(C1=O)[C@H]1CC[C@]3(C)[C@@H](OC(C)=O)CC[C@H]3[C@@H]1CC2", "inactive"],
  ["O=S(=O)(c1ccccc1)[C@@H]1[C@H]2C=C[C@](CS)(O2)[C@H]1S(=O)(=O)c1ccccc1", "inactive"],
  ["C[N+](C)([O-])CCCNc1c2ccccc2nc2cccc([N+](=O)[O-])c12", "active"]
]}

What was the test verdict on COc1ccc(/C=C\c2cc(OC)c(OC)c(OC)c2)cc1OC(=O)CCC(=O)O ?
active

Please state the recorded outcome for this compound: [N-]=[N+]=CC(=O)COC(=O)c1ccccc1
inactive

Would you mind telling me which call this test gave C=C1c2nc3ccccc3n2C=C(c2ccc(C)cc2)N1c1ccc(OC)cc1 ?
inactive

Lab log entry: CCC(/C=C/c1ccccc1)=N\Nc1ccc(Cl)c(Cl)c1 — outcome as called in the assay?
inactive

###

Item-by-item account of GI50
Test system: SNB-75
Assay: NCI tumour cell line growth inhibition, 48 h
Calls of active or inactive are those of the source. Cut-off read from the data, not from the text of the source: active = GI50 up to about 1.1 µM and inactive = higher.

{"columns": ["Compound", "GI50"],
 "data": [
  ["Cc1cc(C)nc(NS(=O)(=O)c2ccc(NC(=O)c3ccc4nc5ccccc5c(Nc5ccc(S(=O)(=O)Nc6nc(C)cc(C)n6)cc5)c4c3)cc2)n1", "> 100 µM (inactive)"],
  ["Clc1cccc(-c2nnc(-c3nn(-c4ccccc4)c4nc5ccccc5nc34)o2)c1", "36.6 µM (inactive)"],
  ["CCN(CC)CCCNc1nc(=O)[nH]c(C)c1C(=O)Nc1c2ccccc2nc2ccccc12", "10.1 µM (inactive)"],
  ["CC1(C)C(C#N)=[N+]([O-])C(C)(C)N1O", "> 100 µM (inactive)"],
  ["COC(=O)C(NC(=O)c1ccccc1)c1ccco1 (centres undefined)", "> 100 µM (inactive)"],
  ["COC(NC(=O)Nc1ccccc1C)(C(F)(F)F)C(F)(F)F", "> 100 µM (inactive)"]
]}

Next, consider the following compound.
Output GI50 of CC(=O)c1[nH]c(NC(C)C)c(C(=S)Nc2ccccc2)c1N
> 100 µM (inactive)

###

The following compounds are listed with their measured GI50 values.
Tested on: HOP-18
Experiment: NCI tumour cell line growth inhibition, 48 h
Activity calls are given as the source filed them. No stated cut-off is given here; in the data, active = GI50 up to about 1.1 µM and inactive = higher.

Given the compound S=C(NCCCCCCNC(=S)Nc1c2ccccc2nc2ccccc12)Nc1c2ccccc2nc2ccccc12 , write its reported GI50.
> 100 µM (inactive)

###

System: OVCAR-3
Assay: NCI tumour cell line growth inhibition, 48 h
Calls of active or inactive are those of the source. Rule as the data show it: active = GI50 up to about 1.1 µM and inactive = higher.
Observation Type: GI50

{"columns": ["Molecule", "GI50"],
 "data": [
  ["O=C(/C=C/c1ccc(OCCCCCCCCCCOc2ccc(/C=C/C(=O)c3ccc(Cl)cc3)cc2)cc1)c1ccc(Cl)cc1", "> 100 µM (inactive)"],
  ["COC(=O)N1CC2C3C4CC(C(c5ccccc5)=C4c4ccccc4)C3C21 (stereo not given)", "15.5 µM (inactive)"],
  ["[N-]=[N+]=Nc1ncnc2c1sc(=S)n2-c1ccccc1", "> 100 µM (inactive)"],
  ["C=C1C(=O)OC2CC3(CO3)C3C(O)C(O)CC3(C)CC12 (stereo not given)", "21.9 µM (inactive)"],
  ["COc1ccc(N[C@H](C[S+]([O-])c2ccc(C)cc2)C(F)(F)F)cc1 (stereo not given in full)", "> 100 µM (inactive)"],
  ["Cc1ccsc1/C=N/Nc1ncccn1", "> 100 µM (inactive)"],
  ["CC(=O)/C=C/c1cccc(N=S)c1", "19.2 µM (inactive)"],
  ["COc1ccc(-c2nc3c(nc2-c2ccc(OC)cc2)C(N)=NS(=O)(=O)N3)cc1", "> 100 µM (inactive)"],
  ["COc1cc(/C=c2/c3ccccc3n3c2cc(-c2ccccc2)[n+]3C)cc(OC)c1OC", "2.43 µM (inactive)"]
]}

Consider the additional molecule presented here.
Annotate the molecule COc1c2c(cc3oc(=O)ccc13)OC(C)(C)C=C2 with its measured GI50.
37.9 µM (inactive)

###

Tested on: 786-0
Assay: NCI tumour cell line growth inhibition, 48 h
Activity calls are given as the source filed them. Cut-off read from the data, not from the text of the source: active = GI50 up to about 1.1 µM and inactive = higher.
Choose the fitting class; nothing outside True for active, False for inactive is accepted.

{"columns": ["Molecule", "Label"],
 "data": [
  ["COc1ccc2c(c1)CC[C@@H]1C2CC[C@]2(C)C(=O)N(CCN3CCCCC3)C(=O)CC12 (stereo partly specified)", "False"],
  ["O=C(NCCC1CN(C(=O)OCc2ccccc2)c2ccccc21)OCc1ccccc1 (stereo unspecified)", "False"],
  ["C/C(=N/NC(=S)Nc1cccc(Cl)c1)c1cccc(/C(C)=N\\NC(=S)Nc2cccc(Cl)c2)n1", "True"]
]}

Record lookup: outcome of this test for COc1ccc2c(c1)C(=O)c1ccccc1C2 ?
False

Would you mind telling me which call this test gave CC1(C)Oc2ccc(NC(=O)CCC(N)C(=O)O)cc2O1 (stereo unspecified) ?
False

###

System: OVCAR-8
Test: NCI tumour cell line growth inhibition, 48 h
Calls of active or inactive are those of the source. Rule as the data show it: active = GI50 up to about 1.1 µM and inactive = higher.
Observation Type: GI50

Below, each entry is followed by its recorded GI50 result.
{"columns": ["Compound", "GI50"],
 "data": [
  ["O=C1N[C@@H](O)[C@@H]2ON=C(c3ccccc3)[C@H]12", "> 100 µM (inactive)"],
  ["COC(=O)C1=C(C)N(NC(N)=O)C2(N)N(NC(N)=O)C(C)=C(C(=O)OC)C12C(=O)OC (centres undefined)", "> 100 µM (inactive)"],
  ["COC(=O)C(C)(NC(=O)C(CC(=O)OC(C)(C)C)NC(=O)OC(C)(C)C)c1ccccc1 (centres undefined)", "> 100 µM (inactive)"]
]}

Query GI50 for Cc1cc(/N=N/c2ccccc2C)ccc1N
15.2 µM (inactive)

For Cc1nn(C(=O)c2ccc(Cl)cc2)c2c1C(c1ccccc1[N+](=O)[O-])SC(=N)N2 (centres undefined) , write its GI50.
> 10 µM (inactive)

For the compound Cc1ccc(S(=O)(=O)NC(=O)NCC(N)=O)cc1 , report GI50.
> 100 µM (inactive)

Give the reported value of GI50 for this record: O=C(COc1ccc2c(=O)cc(-c3ccc(Cl)cc3)oc2c1)N1CCN(c2ccccc2)CC1
> 100 µM (inactive)

Write down GI50 measured for item COc1cccc(N2C(=O)/C(=C\c3ccccc3)SC2c2cc(OC)c(OC)c(OC)c2)c1 (centres undefined)
44.1 µM (inactive)

Output measured GI50 for this item: COC1=CC(=O)C2=C(C1=O)[C@H]1CC[C@]3(C)[C@@H](OC(C)=O)CC[C@H]3[C@@H]1CC2
23.9 µM (inactive)
